target: C5a anaphylatoxin chemotactic receptor 1 (Homo sapiens, UniProt P21730); experiment: Displacement of [125I]C5a from human recombinant C5a receptor in U937 cells
Sequence (P21730 whole entry): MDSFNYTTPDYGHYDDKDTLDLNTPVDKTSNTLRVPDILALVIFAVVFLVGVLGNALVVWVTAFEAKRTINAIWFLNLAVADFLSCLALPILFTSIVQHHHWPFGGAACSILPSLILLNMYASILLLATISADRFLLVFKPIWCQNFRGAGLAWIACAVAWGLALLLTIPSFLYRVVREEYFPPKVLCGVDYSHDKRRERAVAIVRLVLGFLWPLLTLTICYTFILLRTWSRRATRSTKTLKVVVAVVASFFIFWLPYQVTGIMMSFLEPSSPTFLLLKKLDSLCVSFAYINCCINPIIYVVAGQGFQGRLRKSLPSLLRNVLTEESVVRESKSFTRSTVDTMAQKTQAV
measure name: Ki
Reply with a number, then the unit it belongs to.

Task item: Ki for CCc1cccc(CC)c1-c1cc(OC)c2c(n1)CCCC2Nc1ccccc1CCO (stereo unspecified) ?
Reply: 21 nM

###

target: C5a anaphylatoxin chemotactic receptor 1 (Homo sapiens); assay: Antagonist activity at human recombinant C5a receptor in U937 cells assessed as inhibition of C5a-induced calcium mobilization by FLIPR assay
IC50 by entry:
Respond numerically; units are µM and should not be typed.

Task item: IC50 for CCc1cccc(CC)c1-c1cc(OC)c2c(n1)CCCC2Nc1cc(-c2ccccc2)ccc1C (stereo not given) ?
Reply: 2.5

Task item: IC50 for CCc1cccc(CC)c1-c1cc(OC)c2c(n1)CCCC2N(C)c1cc(OC)ccc1OC (racemic) ?
Reply: 2.6

Task item: IC50 for CCc1cccc(CC)c1-c1cc(OC)c2c(n1)CCCC2Nc1ccc(OC)cc1C (stereo not given) ?
Reply: 2.4

Every entry's value here was drawn from ChEMBL document CHEMBL1155122.
